FYI, the data here is from the supplement of paper PMC10567573.

I'd be grateful if you could share measured protein stability index for these entries.
B1: LMNB1 (parent)
chain: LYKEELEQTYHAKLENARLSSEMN

- Variants of: B1
- assay-comment: protein stability index of a GFP-peptide fusion (GPS, HEK-293T) (PSI 1-6); higher = more stable;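 also: lentivirally expressed fusions sorted by FACS into six bins by GFP to DsRed ratio, PSI derived from sequencing read proportions per bin multiplied by bin number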
- condition-details: c terminus: a fixed tail appended
Numbers only.

A selection of reference data follows.
LYKEELEQTYHAKLENAQLSSEMN [R18Q] | 3.14
LYKEELEQTYHAKLENARLSHEMN [S21H] | 2.59
LYKEELEQTYHAKYENARLSSEMN [L14Y] | 3.51
LYKEILEQTYHAKLENARLSSEMN [E5I] | 1.82
LYKEELEQTGHAKLENARLSSEMN [Y10G] | 4.52

For each of the variants below, note its protein stability index.
1. LYKEEYEQTYHAKLENARLSSEMN [L6Y]
2. LYKEEQEQTYHAKLENARLSSEMN [L6Q]
3. LYKEELEHTYHAKLENARLSSEMN [Q8H]
4. LYKEELEQTYHAKLSNARLSSEMN [E15S]
5. LYKEELEDTYHAKLENARLSSEMN [Q8D]
6. LYKEELEQTYHAKLENARLSQEMN [S21Q]
7. LYKEELEQTYHAKLENARLSSEMT [N24T]
8. LYKEELQQTYHAKLENARLSSEMN [E7Q]

Result:
1. 4.48
2. 5.03
3. 2.08
4. 2.33
5. 3.46
6. 2.55
7. 2.46
8. 3.4
